Target: T1, 4H2667-bN
T1 chain: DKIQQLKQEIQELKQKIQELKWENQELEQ
Experiment: two-hybrid library CCNG1;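 note: natural log of median RNA to DNA barcode read ratio; higher means stronger binding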
ENDPOINT LABEL: interaction score
Keep the answer to the number alone.

Data request: Fill in: interaction score of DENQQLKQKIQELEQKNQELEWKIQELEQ [4H1845-bN] is ___
Data returned: 0.755

Data request: Fill in: interaction score of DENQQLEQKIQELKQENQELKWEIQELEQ [4H1369-bN] is ___
Data returned: -1.23

Data request: Fill in: interaction score of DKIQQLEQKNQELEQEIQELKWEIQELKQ [4H2442-bN] is ___
Data returned: 0.241

Data request: Fill in: interaction score of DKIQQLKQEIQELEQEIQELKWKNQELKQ [4H2576-bN] is ___
Data returned: 1.21
